Please go through the items and note down their cell number change.
Assay: qHTS Assay for Lipid Storage Modulators in Drosophila S3 Cells;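 for cell number change: cells counted by Cell Tracker Red CMTPX staining in the red channel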
Details: BODIPY lipid droplet fluorescence, 18-24 h, cells fed with added oleic acid; measured here: cell count max response
Out of some 320,000 compounds screened, about 2,100 (0.66%) were called active. Roughly 53% stayed inconclusive and do not appear here. The sample holds actives, similar compounds and a random draw of the others, so the mix is not that of the screen.
Returns: string containing the number followed by the unit.

Cc1cc(N2CCCCC2)nc2c(C)cccc12	3.12%
CC(=O)c1sc(Nc2ccc(C)cc2)nc1C	7.99%
CC1CCN(Cc2cc(=O)oc3ccc4ccccc4c23)CC1	16.9%

I have 4 compounds here; please give me cell number change for each one.
1. O=C(CN1CCN(c2ccccc2F)CC1)Nc1ccc2c(c1)CCC2
2. COc1ccccc1Nc1nnc(SCC(=O)NC2CC2)s1
3. O=S(=O)(c1ccccc1)c1nnn2c1nc(NC1CCN(Cc3ccccc3)CC1)c1cc(Cl)ccc12
4. COc1ccccc1OCC(=O)Nc1ccc(Cl)cc1

output:
1. -8.56%
2. -14.3%
3. -5.44%
4. -13.6%

###

Experiment: qHTS Assay for Lipid Storage Modulators in Drosophila S3 Cells;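 for cell number change: cells counted by Cell Tracker Red CMTPX staining in the red channel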
Conditions: BODIPY lipid droplet fluorescence, 18-24 h, cells fed with added oleic acid; measured here: cell count max response
The campaign covered roughly 320,000 compounds. About 2,100 (0.66%) were called active. Inconclusive results (about 53%) are left out. This excerpt belongs to a sample that is enriched for actives.
MEASUREMENT_TYPE: cell number change (%)
One number for each entry, in %.

C/C=C/c1ccc(OCCn2nnc3ccccc32)c(OC)c1	1.4
COc1ccc(NC(=O)C2CCN(S(C)(=O)=O)CC2)cc1OC	11.1

Batch request: cell number change per item, same order as input.
1. CCCCCC(=O)Nc1nc(C)c(-c2csc(Nc3ccc(Cl)cc3)n2)s1
2. CCOC(=O)c1c(NC(=S)N2CCOCC2)sc2c1CCN(C(=O)OCC)C2
3. Cc1ccc(S(=O)(=O)Nc2ccc(-c3ccc4nncn4n3)cc2)cc1
4. CCCCCNC(=O)c1cccnc1SCC(=O)Nc1ccccc1OC
5. Cc1ccc(S(=O)(=O)c2c(O)c3ccc(C(=O)O)cc3[nH]c2=O)cc1

output:
[-19, -10.4, -22.1, -0.809, -5.9]

Provide reported cell number change for each item, in the same order as listed.
1. COc1ccc(CC(=O)Nc2ccccc2C(=O)NCCc2ccccc2)cc1
2. Cc1ccc(-n2nc(C)c3c(C)c(CCC(=O)O)c(C)nc32)cc1C
3. CCCCCCCCNC(=O)c1cccnc1SCC(=O)Nc1ccc(OC)cc1OC
4. CCC(=O)Nc1nc(C)c(-c2csc(Nc3cccc(C(=O)O)c3)n2)s1

output:
7.51
9.26
-25.3
10.2

Please give cell number change, item by item, for the list that follows.
1. Cc1ccc2c(CC(=O)NCc3cccs3)coc2c1
2. Cc1cc2occ(CC(=O)NCc3cccs3)c2cc1C(C)C
3. O=C1CC(N2CCN(c3ccccc3)CC2)C(=O)N1CCc1ccccc1 (stereo not drawn)
4. Clc1cccc(NC2=NCCC2)c1
5. CC(C)NC(=O)CCCOc1ccc(Cl)cc1Cl
6. Clc1cccc(Cl)c1NC1=NCCC1
7. Cc1ccc(NC(=O)C2CCN(S(C)(=O)=O)CC2)cc1

output:
1. 20.1
2. -2.8
3. 0.673
4. -7.84
5. 5.02
6. 6.79
7. 1.04

###

Assay: qHTS Assay for Lipid Storage Modulators in Drosophila S3 Cells
Conditions: BODIPY lipid droplet fluorescence, 18-24 h, cells fed with added oleic acid; series mostly up to 46.1 µM
The whole screen tested about 320,000 compounds, of which about 2,100 (0.66%) were called active. Inconclusive results (about 53%) are left out. The call rests on the fitted dose curve; in most records, active means well fitted inhibition curve with a large enough effect in the signal ratio, with a control signal flat (not every such curve was filed as active); inconclusive means small, poorly fitted or top-dose-only effect, or effect the other way, or a change in a side signal; inactive means flat fitted curve, though single readings scatter; the % refers to the signal ratio. This excerpt belongs to a sample that is enriched for actives.
The reply should be one of these categories: true (1) (active), false (0) (inactive)

Known results for compounds:
COc1ccc(Oc2cccc(Cl)c2CNC(=O)CCCC(=O)O)cc1	false (0)
CCCn1c(=N)n(CC(O)c2ccco2)c2ccccc21 (stereo not given)	false (0)
Cc1ccc(S(=O)(=O)NCc2ccccc2)cc1C(=O)N(C)CC(=O)Nc1c(Cl)cccc1Cl	false (0)

input: Which outcome did this test record for the compound N=c1n(CCN2CCCCC2)c2ccccc2n1CC(O)c1ccco1 (stereo not given) ?
output: false (0)

input: For CCOC(=O)C1=C(C)N=c2s/c(=C/c3ccc(OCC(=O)O)cc3)c(=O)n2C1c1ccc(OC)cc1OC (stereo not given) , which call appears in the assay record?
output: true (1)

input: For Cc1c(C#N)sc(C(N)=O)c1C , what call appears in the results of this test?
output: false (0)

input: State the result this test recorded for CCOC(=O)C1CCCN(C(=O)c2cc(S(=O)(=O)Nc3ccccc3OC)ccc2C)C1 (stereo not given) .
output: false (0)

input: State the result this test recorded for CCOC(=O)C1=C(C)N=c2s/c(=C\c3ccc(OCC(=O)O)c(OC)c3)c(=O)n2C1c1ccc(OC)cc1 (stereo not given) .
output: false (0)

input: How did this test come out for COc1ccc(/C=N/S(=O)(=O)c2ccc(C)cc2)cc1 ?
output: false (0)

input: Write down the call the test reported for this compound. Item: CCOC(=O)C1=C(C)N=c2s/c(=C\c3ccc(OCC(=O)O)cc3)c(=O)n2C1c1ccccc1 (stereo not given)
output: false (0)

###

Experiment: qHTS Assay for Lipid Storage Modulators in Drosophila S3 Cells; note: potency is the fitted concentration of half-maximal effect
Settings: BODIPY lipid droplet fluorescence, 18-24 h, cells fed with added oleic acid; series mostly up to 46.1 µM
Among all 320,000 compounds or so, about 2,100 (0.66%) were called active. Not shown: some 53% with an inconclusive outcome. The sample as a whole holds a higher share of actives than the screen did.
MEASUREMENT_TYPE: Potency

Some entries whose results are on file:
Cc1ccc(Nc2nc(N)nc(CN3CCN(C)CC3)n2)cc1C	inactive
COc1ccc(N2C(=O)C3CCCN3C2=O)cc1 (stereo not drawn)	18.4 µM (active)
CCN(CC)CCNC(=O)c1ccccc1C(=O)c1ncc[nH]1	inactive
O=C1/C(=C/c2ccccc2)SC(=S)N1C1CCS(=O)(=O)C1 (stereo not drawn)	inactive
CCN(CC)CCN(Cc1cc2cc3c(cc2[nH]c1=O)OCCO3)C(=O)NC1CCCCC1	16.4 µM (active)
COc1ccc(N2C(=O)C3CCCN3C2c2cccs2)cc1 (stereo not drawn)	8.2 µM (active)
Cc1cc(C(=O)COC(=O)/C=C/c2cccc(F)c2)c(C)n1C	inactive
Cc1cccc(N2CCN(C(=O)C3(S(=O)(=O)c4ccc(Cl)cc4)CC3)CC2)c1C	inactive
Cc1nnc2n1CCCCC2	inactive
CCOC(=O)[C@@H]1[C@H]2COc3ccccc3[C@H]2N2C(=O)N(c3ccc(Cl)cc3)C(=O)[C@]12C	inactive

Go through the items and report each one's Potency.
1. COCCNc1ncnc2nc[nH]c12
2. CC(c1ccccc1)n1c(CCCO)nc2ccccc21 (stereo not drawn)
3. COc1cccc(N2C(=O)C3CCCN3C2c2cccs2)c1 (stereo not drawn)
4. CCOC(=O)[C@@H]1[C@H]2COc3ccccc3[C@H]2N2C(=O)N(c3ccc(C(F)(F)F)cc3)C(=O)[C@]12C

output:
1. inactive
2. inactive
3. inactive
4. 1.46 µM (active)

###

Assay: qHTS Assay for Lipid Storage Modulators in Drosophila S3 Cells;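 for cell number change: cells counted by Cell Tracker Red CMTPX staining in the red channel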
Settings: BODIPY lipid droplet fluorescence, 18-24 h, cells fed with added oleic acid; measured here: cell count max response
The whole screen tested about 320,000 compounds, of which about 2,100 (0.66%) were called active. Another 53% or so got no clear call; they are omitted. Shown is part of a subset that was picked to be rich in actives.
Assignment: determine reported cell number change for the given compounds.
Give bare numbers, in %.

COc1ccc(S(=O)(=O)N2CCC(C(=O)N[C@@H](C)C(=O)NCc3ccc(F)cc3)CC2)cc1	13.5
CCOc1ccc(S(=O)(=O)N2CCCC(C(=O)N3CCOCC3)C2)cc1C (stereo not given)	-23.5
CCOC(=O)N1CCN(S(=O)(=O)N2CCCC(C(=O)NCCc3ccc(OC)c(OC)c3)C2)CC1 (stereo not given)	-20.2
COc1ccc(CNC(=O)[C@H](C)NC(=O)C2CCN(S(=O)(=O)c3ccc(C)cc3)CC2)cc1	-4.43

CCOc1ccc(CCNC(=O)C2CCCN(S(=O)(=O)N3CCOCC3)C2)cc1OCC (stereo not given) yielded cell number change of 0.288

###

Assay: qHTS Assay for Lipid Storage Modulators in Drosophila S3 Cells
Settings: BODIPY lipid droplet fluorescence, 18-24 h, cells fed with added oleic acid; series mostly up to 46.1 µM
About 2,100 (0.66%) of roughly 320,000 compounds were called active. Not shown: some 53% with an inconclusive outcome. Calls come from the whole dose curve; as a rule, active = well fitted inhibition curve with a large enough effect in the signal ratio, with a control signal flat (not every such curve was filed as active); inconclusive = small, poorly fitted or top-dose-only effect, or effect the other way, or a change in a side signal; inactive = flat fitted curve, though single readings scatter; the % refers to the signal ratio. The sample holds actives, similar compounds and a random draw of the others, so the mix is not that of the screen.
Allowed answers: T = active, F = inactive

Some solved cases for reference:
COc1ccccc1NC(=O)c1sc(Cl)nc1C	F
Cc1ccc(NS(=O)(=O)c2ccc(Cl)s2)cc1S(=O)(=O)N(C)C	F
O=[N+]([O-])c1ccc(N2CCN(S(=O)(=O)Cc3ccccc3)CC2)cc1N1CCOCC1	F
Cc1cc(N2CCCCC2)nc2c(C)cccc12	F
Cc1ccc(S(=O)(=O)N(C)C)cc1NS(=O)(=O)c1ccc(Cl)s1	T

input: Name the outcome recorded for CCCS(=O)(=O)c1nc(S(=O)(=O)c2ccc(C)cc2)c(N2CCN(C)CC2)s1 in the assay.
output: F

input: Kindly provide the recorded test outcome for the following compound: COc1ccc(NC(=O)C(c2ccc(OC)cc2)N(C)C(=O)Cc2cccs2)cc1 (stereo not drawn)
output: F

input: Hi team, can someone confirm the assay call for CC(=O)Nc1cccc(Oc2ncnc3scc(-c4ccccc4)c23)c1 ?
output: F

input: Each compound tested received a call. Report the one for COC(=O)c1sccc1NC(=O)CC1C(=O)NCCN1C(=O)c1c(F)cccc1Cl (stereo not drawn) .
output: F

input: Name the outcome recorded for COc1cc(OC)c(NC(=O)CCNS(=O)(=O)c2cc(Br)cnc2N)cc1Cl in the assay.
output: F

input: Entry COc1ccc(NS(=O)(=O)c2cc(NC(=O)Cc3c(F)cccc3Cl)ccc2OC)cc1 : call = ?
output: F

input: Look up the recorded call for COc1ccc(-c2c3c(=O)n(C)c(=O)n(C)c3cn2-c2ccccc2O)cc1 in this test.
output: F

input: Test call, this compound: Cc1ccc(-n2nc3c(c2NC(=O)CC(C)C)CS(=O)C3)cc1 (stereo not drawn)
output: F
